Cited source: the supplement of paper PMC10126150

# Test system: ATP;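 further: ATP exposure 15 min at 22 °C before imaging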
# assay.protocol: switch fluorescence ratio, 500 uM ATP over buffer (Cy3 cluster intensity, sum of 5 cycles each) (fold (ratio)); higher = stronger signal-on switching upon ATP binding; sequences stand for … in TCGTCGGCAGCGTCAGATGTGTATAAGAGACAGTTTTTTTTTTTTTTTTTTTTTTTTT…TC
# study.conditions: aptamer strand: ATP DNA aptamer (quencher-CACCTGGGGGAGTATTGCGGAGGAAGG + anchor), 100 nM annealed; ATP concentration: 500 uM

- seq.string: "TATCGTAAAT"
  switch fluorescence ratio: 1
- seq.string: "ATCAGTGAGA"
  switch fluorescence ratio: 1.03
- seq.string: "AGTTGGGAGC"
  switch fluorescence ratio: 0.991
- seq.string: "GCAAGACATT"
  switch fluorescence ratio: 1.12
- seq.string: "CATGGTTGGG"
  switch fluorescence ratio: 0.984
- seq.string: "GGATTAGGTC"
  switch fluorescence ratio: 1.02
- seq.string: "AAGCAAATCT"
  switch fluorescence ratio: 1.18
- seq.string: "GATTGTGACG"
  switch fluorescence ratio: 1.06
- seq.string: "TGGCTGTTTT"
  switch fluorescence ratio: 1.04
- seq.string: "TTCGGAGAAT"
  switch fluorescence ratio: 1.16
- seq.string: "GCTCTGAGCT"
  switch fluorescence ratio: 1.05
- seq.string: "GGCTTTTAAC"
  switch fluorescence ratio: 0.983
- seq.string: "GGGGGGTCT"
  switch fluorescence ratio: 1.09
- seq.string: "CCCCTTTATT"
  switch fluorescence ratio: 1.01
- seq.string: "CATGAAGGTA"
  switch fluorescence ratio: 0.957
- seq.string: "ACCAAAAATG"
  switch fluorescence ratio: 1.1
- seq.string: "GCAGGCGGGG"
  switch fluorescence ratio: 1.02
- seq.string: "GAGGGAAAAG"
  switch fluorescence ratio: 1.01
- seq.string: "TGATACATAA"
  switch fluorescence ratio: 1.03
- seq.string: "TAGTACTAGA"
  switch fluorescence ratio: 1.03
- seq.string: "GGGGTGATAG"
  switch fluorescence ratio: 1
- seq.string: "CGCGTTGTTG"
  switch fluorescence ratio: 1.03
- seq.string: "TTTCTGAGCT"
  switch fluorescence ratio: 1.08
- seq.string: "ACTGTCGGGC"
  switch fluorescence ratio: 1.03
- seq.string: "AAGTTAGTTA"
  switch fluorescence ratio: 1.03
- seq.string: "GCGATACTGT"
  switch fluorescence ratio: 3.08
- seq.string: "TGCCGGATTT"
  switch fluorescence ratio: 1.02
- seq.string: "GGACTTTAAG"
  switch fluorescence ratio: 0.952
- seq.string: "AGGGGCTTAT"
  switch fluorescence ratio: 1.01

* * *

# Test system: ATP;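 further: ATP exposure 15 min at 22 °C before imaging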
# assay.protocol: switch fluorescence ratio, 500 uM ATP over buffer (Cy3 cluster intensity, sum of 5 cycles each) (fold (ratio)); higher = stronger signal-on switching upon ATP binding; sequences stand for … in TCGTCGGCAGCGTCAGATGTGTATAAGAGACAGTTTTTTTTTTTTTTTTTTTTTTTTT…TC
# study.conditions: aptamer strand: ATP DNA aptamer (quencher-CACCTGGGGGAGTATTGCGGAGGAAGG + anchor), 100 nM annealed; ATP concentration: 500 uM
Catalogue of switch fluorescence ratio readings, one per entry.

- seq.string: "TTTATTAGAT"
  switch fluorescence ratio: 0.982
- seq.string: "TATTTTAGC"
  switch fluorescence ratio: 0.971
- seq.string: "CGCCTTTACA"
  switch fluorescence ratio: 1.02
